- target.or.system: human ADRA2B receptor (Homo sapiens)
- Construct: expressed in transfected cells
- Sequence (P18089 1-450): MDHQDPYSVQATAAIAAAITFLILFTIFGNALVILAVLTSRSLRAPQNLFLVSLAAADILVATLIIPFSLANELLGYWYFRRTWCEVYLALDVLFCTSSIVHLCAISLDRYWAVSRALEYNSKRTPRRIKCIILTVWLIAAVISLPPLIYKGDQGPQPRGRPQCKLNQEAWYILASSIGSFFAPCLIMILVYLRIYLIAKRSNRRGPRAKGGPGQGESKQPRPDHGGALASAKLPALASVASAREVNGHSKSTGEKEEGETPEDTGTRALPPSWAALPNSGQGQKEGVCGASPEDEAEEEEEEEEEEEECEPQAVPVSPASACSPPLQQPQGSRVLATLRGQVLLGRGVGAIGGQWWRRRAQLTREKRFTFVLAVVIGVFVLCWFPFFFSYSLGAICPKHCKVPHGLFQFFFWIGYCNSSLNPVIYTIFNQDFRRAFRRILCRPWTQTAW
- procedure.summary: ADRA2B arrestin agonist assay
- Type: cell-based
- cond: CHO-K1 cells stably expressing human ADRA2B; read-out: Beta-Arrestin - Human Alpha2B EC50
endpoint: EC50

Look over these answered cases.
compound	EC50
Cc1cccc(C(Cc2ccnc(C(C)(C)O)n2)c2c[nH]cn2)c1C (stereo not drawn)	< 10 nM
Cc1nccc(CC(c2ccc3cccnc3c2)c2c[nH]cn2)n1 (stereo not drawn)	> 500 nM
COc1nccc(CC(c2c[nH]cn2)c2ccc(C)c(F)c2F)n1 (stereo not drawn)	> 500 nM
Cc1cccc([C@H](Cc2ccn(CF)n2)c2c[nH]cn2)c1C	< 10 nM

// batch mode: one EC50 value per listed entry
1. c1cc2c(c([C@@H](Cc3cocn3)c3c[nH]cn3)c1)OCC2
2. Cn1ncc2c(C(Cc3cccc(CO)n3)c3c[nH]cn3)cccc21 (stereo not drawn)
3. COCc1nccc(C[C@H](c2c[nH]cn2)c2cccc(C)c2C)n1
4. CC(C)n1cc(C[C@@H](c2c[nH]cn2)c2cccc3c2OCC3)cn1
5. Cn1nccc1CC(c1c[nH]cn1)c1cccc2c1OCCCO2 (stereo not drawn)

50 to 500 nM
10 to 50 nM
> 500 nM
> 500 nM
> 500 nM

---

- target.or.system: human ADRA2B receptor (Homo sapiens, UniProt P18089)
- Construct: expressed in transfected cells
- procedure.summary: ADRA2B arrestin agonist assay
- Type: cell-based
- cond: CHO-K1 cells stably expressing human ADRA2B; read-out: Beta-Arrestin - Human Alpha2B EC50
endpoint: EC50

// batch mode: one EC50 value per listed entry
1. COc1cccc(C(Cc2cccnn2)c2c[nH]cn2)c1C (centres unmarked)
2. Cc1cccc([C@@H](Cc2cn(C)nn2)c2c[nH]cn2)c1F
3. Cc1nccc(CC(c2c[nH]cn2)c2cccc3c2cnn3C)n1 (centres unmarked)
4. COc1c(Cl)cccc1C(Cc1ccnc(C)n1)c1c[nH]cn1 (centres unmarked)
5. Cc1cccc(C(Cc2ccns2)c2c[nH]cn2)c1C (centres unmarked)
6. Cc1cc(CC(c2c[nH]cn2)c2cccc(C)c2C)nc(C(C)(C)O)n1 (centres unmarked)
7. COc1nccc(CC(c2ccc(F)c(F)c2)c2c[nH]cn2)n1 (centres unmarked)
8. Cc1cccc(CC(c2c[nH]cn2)c2cccc3ccn(C)c23)n1 (centres unmarked)

["> 500 nM", "< 10 nM", "< 10 nM", "50 to 500 nM", "< 10 nM", "< 10 nM", "> 500 nM", "10 to 50 nM"]

// batch mode: one EC50 value per listed entry
1. Cc1nnc(CC(c2c[nH]cn2)c2cccc(C)c2C)s1 (centres unmarked)
2. Cc1cccc(C(Cc2ccc3nccn3c2)c2c[nH]cn2)c1C (centres unmarked)
3. COc1nccc(C[C@@H](c2c[nH]cn2)c2cccc3ccn(C)c23)n1
4. OCc1nccc(CC(c2c[nH]cn2)c2cccc(Cl)c2F)n1 (centres unmarked)
5. COc1nccc(CC(c2c[nH]cn2)c2cccc(OC)c2F)n1 (centres unmarked)
6. Cc1cccc([C@@H](Cc2cnco2)c2c[nH]cn2)c1F
7. c1cc2c(c([C@H](Cc3cocn3)c3c[nH]cn3)c1)OCC2

50 to 500 nM
< 10 nM
< 10 nM
10 to 50 nM
10 to 50 nM
> 500 nM
50 to 500 nM

// batch mode: one EC50 value per listed entry
1. Cc1cccc([C@H](Cc2ccnc(C3CC3)n2)c2c[nH]cn2)c1C
2. Cc1cc(CC(c2c[nH]cn2)c2cccc(C)c2C)nc(C(C)(C)F)n1 (centres unmarked)
3. CCc1cccc(C(Cc2ccn3ccnc3c2)c2c[nH]cn2)c1O (centres unmarked)
4. Cc1cccc([C@@H](Cc2ccn(C(F)F)n2)c2c[nH]cn2)c1C
5. Cc1nc(C[C@@H](c2c[nH]cn2)c2cccc(C)c2C)c(C)o1
6. Cc1nc(CC(c2c[nH]cn2)c2cccc(C)c2C)no1 (centres unmarked)
7. COc1c(C)cccc1C(Cc1cocn1)c1c[nH]cn1 (centres unmarked)

1: 10 to 50 nM; 2: < 10 nM; 3: > 500 nM; 4: > 500 nM; 5: < 10 nM; 6: 50 to 500 nM; 7: > 500 nM
